// provenance: patent US20190030009A1

- assay_info: Cytotoxicity against HepG2
- Assay type: cell-based
- condition_summary: human, HepG2 cells (ATCC HB-8065), 5 days exposure
Note to self: CC50 at 5 days under 20 µM means 1 (yes), ties and anything higher get 0 (no).

chemical_smiles	discrete_label
CCN(C(=O)c1ccn2ncc(-c3ccc(S(=O)(=O)NC)cc3)c2c1)c1ccc(C#N)cn1	0 (no)

Q: Determine if "CN(C(=O)c1ccn2ncc(-c3cnc(N)nc3)c2c1)c1ccc(C#N)cc1" shows CC50 at 5 days strictly lower than 20 µM.
Ans: 0 (no)

Q: Moving on to "CCN(C(=O)c1ccn2ncc(-c3ccc(S(C)(=O)=O)cc3)c2c1)c1ccc(C#N)cn1"
Ans: 0 (no)

Q: Check "CNC(=O)c1ccc(-c2cnn3ccc(C(=O)N(c4ccc(C(F)(F)F)cn4)C4CC4)cc23)cc1" too.
Ans: 1 (yes)

* * *

- assay_info: Cytotoxicity against HepG2
- Format: cell-based
- condition_summary: human, HepG2 cells (ATCC HB-8065), 5 days exposure
Response field label: string, one of true (1) (CC50 at 5 days strictly below 20 µM) or false (0).

Below, 6 molecules whose answers are already recorded.
chemical_smiles	discrete_label
N#Cc1ccc(N(CCO)C(=O)c2ccn3ncc(-c4ccc(C(N)=O)cc4)c3c2)cc1	false (0)
CNC(=O)c1ccc(-c2cnn3ccc(C(=O)N(c4ccc(C#N)cc4)C4CCC4)cc23)cn1	true (1)
CNC(=O)c1ccc(-c2cnn3ccc(C(=O)N(C)c4ccc(Cl)cc4)cc23)cn1	true (1)
CNC(=O)c1ccc(-c2cnn3ccc(C(=O)N(c4ccc(Cl)cn4)C4CC4)cc23)cc1	false (0)
CNC(=O)c1ccc(-c2cnn3ccc(C(=O)N(CCO)c4ccc(C#N)cc4)cc23)cc1	false (0)
CNC(=O)c1ccc(-c2cnn3ccc(S(=O)(=O)N(c4ccc(C#N)cn4)C4CC4)cc23)cc1	true (1)

Q: Say whether its CC50 at 5 days is strictly beneath 20 µM. Entry: "CCNC(=O)c1ccc(-c2cnn3ccc(C(=O)N(c4ccc(C#N)cn4)C4CC4)cc23)cc1"
Ans: false (0)

Q: Subsequent entry: "CNC(=O)c1ccc(-c2cnn3ccc(S(=O)(=O)N(C)c4ccc(C#N)cn4)cc23)cc1"
Ans: true (1)

* * *

Here's what we have: pIC50 numbers for C. parvum PI(4)K (Cryptosporidium parvum).
Worth noting: pIC50 values are minus log10 of concentrations stated in mol/L.

compound	pIC50
CNC(=O)c1ccc(-c2cnn3ccc(C(=O)N(c4ccc(C#N)c(OC)n4)C4CC4)cc23)cc1 [Example 149]	8.40

Q: Value lookup for pIC50; key = CNC(=O)c1ccc(-c2cnn3ccc(C(=O)N(c4ccc(C(F)(F)F)cn4)C(C)C)cc23)cc1 [Example 153]
Ans: 8.22

Q: Also need CC(C)[C@H](N)C(=O)Nc1ccc(-c2cnn3ccc(C(=O)N(C)c4ccc(C#N)cc4)cc23)cc1 [Example 45] , thanks.
Ans: 6.62

Q: For CCN(C(=O)c1ccn2ncc(-c3ccc(C(=O)NC)nc3)c2c1)c1ccc(C#N)cn1 [Example 150] then?
Ans: 6.66

* * *

- test_target: C. parvum PI(4)K (Cryptosporidium parvum)
- Sequence (Q5CVD3 entry or part of it): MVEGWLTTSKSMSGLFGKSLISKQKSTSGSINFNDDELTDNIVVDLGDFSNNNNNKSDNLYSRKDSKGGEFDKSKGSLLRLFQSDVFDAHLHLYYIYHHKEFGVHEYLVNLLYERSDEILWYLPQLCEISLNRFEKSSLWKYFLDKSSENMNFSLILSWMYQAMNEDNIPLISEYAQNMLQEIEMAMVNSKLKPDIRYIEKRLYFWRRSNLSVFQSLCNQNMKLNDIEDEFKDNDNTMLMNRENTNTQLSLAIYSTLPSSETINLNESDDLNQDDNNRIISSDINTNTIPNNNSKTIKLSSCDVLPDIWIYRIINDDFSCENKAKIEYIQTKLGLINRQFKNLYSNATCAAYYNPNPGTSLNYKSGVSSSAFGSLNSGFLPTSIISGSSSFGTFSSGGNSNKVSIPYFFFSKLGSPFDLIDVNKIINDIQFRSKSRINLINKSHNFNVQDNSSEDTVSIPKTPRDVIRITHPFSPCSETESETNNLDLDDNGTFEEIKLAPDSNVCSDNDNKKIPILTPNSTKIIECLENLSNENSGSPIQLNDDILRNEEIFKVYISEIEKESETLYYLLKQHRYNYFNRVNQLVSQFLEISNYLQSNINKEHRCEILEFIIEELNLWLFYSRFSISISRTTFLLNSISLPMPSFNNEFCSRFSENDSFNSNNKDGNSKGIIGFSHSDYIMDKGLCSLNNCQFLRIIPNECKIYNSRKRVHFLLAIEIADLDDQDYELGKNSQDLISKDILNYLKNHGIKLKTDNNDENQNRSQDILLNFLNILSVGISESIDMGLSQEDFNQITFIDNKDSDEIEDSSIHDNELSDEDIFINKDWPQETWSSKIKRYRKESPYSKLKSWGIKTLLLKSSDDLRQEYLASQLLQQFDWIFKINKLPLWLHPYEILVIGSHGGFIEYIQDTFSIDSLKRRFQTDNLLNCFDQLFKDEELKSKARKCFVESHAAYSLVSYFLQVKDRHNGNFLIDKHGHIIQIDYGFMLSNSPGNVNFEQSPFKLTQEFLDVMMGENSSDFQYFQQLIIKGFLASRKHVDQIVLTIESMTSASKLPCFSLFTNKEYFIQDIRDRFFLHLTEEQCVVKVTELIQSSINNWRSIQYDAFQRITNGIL
Mark true (1) only for IC50 values smaller than 60 nM; exact matches and larger values are false (0).

Below, 5 compounds whose answers are already recorded.
compound	test_target	discrete_label
CNC(=O)c1ccc(-c2cnn3ccc(C(=O)N(c4ccc(Cl)cn4)C4CC4)cc23)cc1	C. parvum PI(4)K (Cryptosporidium parvum)	true (1)
CN(C(=O)c1ccn2ncc(-c3ccc(N)nc3)c2c1)c1ccc(C#N)cn1	C. parvum PI(4)K (Cryptosporidium parvum)	false (0)
CNC(=O)c1ccc(-c2cnn3ccc(C(=O)N(c4ccc(C#N)cn4)C4CCCC4)cc23)cc1	C. parvum PI(4)K (Cryptosporidium parvum)	false (0)
CNC(=O)c1ccc(-c2cnn3ccc(C(=O)N(NC)c4ccc(C#N)cc4)cc23)cn1	C. parvum PI(4)K (Cryptosporidium parvum)	true (1)
CC(Cn1cccn1)N(C(=O)c1ccn2ncc(-c3ccc(C(N)=O)cc3)c2c1)c1ccc(C#N)cn1 (stereo not shown)	C. parvum PI(4)K (Cryptosporidium parvum)	true (1)

Q: Take the compound "CNC(=O)c1ccc(-c2cnn3ccc(N(C)C(=O)c4ccc(C#N)cn4)cc23)cc1" and say whether its IC50 is less than 60 nM.
Ans: false (0)

Q: Same question for "CCNC(=O)c1ccc(-c2cnn3ccc(C(=O)N(c4ccc(C#N)cn4)C4CC4)cc23)cc1" please.
Ans: true (1)

Q: Moving on to the next compound: "N#Cc1ccc(N(C(=O)c2ccn3ncc(-c4ccc(C(N)=O)cc4)c3c2)C2CC2)nc1"
Ans: true (1)

Q: // query: "N#Cc1ccc(N(C(=O)c2ccn3ncc(-c4ccc(C(=O)NC5COC5)cc4)c3c2)C2CC2)nc1"
Ans: false (0)

Q: Next compound: "CN(C(=O)c1ccn2ncc(-c3ccc(C(N)=O)cn3)c2c1)c1ccc(C#N)cc1"
Ans: false (0)

Q: Also "CC(C)NC(=O)c1ccc(-c2cnn3ccc(C(=O)N(c4ccc(C#N)cn4)C4CC4)cc23)cc1" , if possible.
Ans: false (0)

Q: Next record, please: "CNC(=O)c1ccc(-c2cnn3ccc(C(=O)N(c4ccc(C#N)cn4)C4CCC4)cc23)cc1"
Ans: false (0)

Q: // same read-out, input: "CN(C(=O)c1ccn2ncc(-c3ccc(C(N)=O)cc3)c2c1)c1ccc(C#N)cc1"
Ans: true (1)

Q: // same read-out, input: "CNC(=O)c1ccc(-c2cnn3ccc(C(=O)N(CC4CC4)c4ccc(C#N)cn4)cc23)cc1"
Ans: true (1)

Q: Same for "CNC(=O)c1ccc(-c2cnn3ccc(C(=O)N(c4ccc(C(F)(F)F)cn4)C4CCC4)cc23)cc1"
Ans: true (1)

Q: Now give it for "CCN(C(=O)c1ccn2ncc(-c3ccc(C(=O)NC)cc3)c2c1)c1ccc(C(F)(F)F)cn1" too.
Ans: true (1)
